Examples of compounds with documented melting point follow.

Smiles | melting point
O=C1Nc2ccc(F)cc2C1=NN=Cc1cccc(O)c1 | 260 to 261 °C
COc1cc(C=NN=C2C(=O)Nc3ccc(F)cc32)ccc1O | 232 to 233 °C
Cc1ccc(C=NN=C2C(=O)Nc3ccc(F)cc32)cc1 | 241 to 242 °C
COc1ccc(C=NN=C2C(=O)Nc3ccc(F)cc32)c(O)c1 | 257 to 258 °C
O=C1Nc2ccc(F)cc2C1=NN=Cc1ccc(Cl)cc1 | 257 to 258 °C

----------
Test system: A549 human lung epithelial carcinoma cell line
Experiment: MTT cytotoxicity, A549 lung cancer cells
Format: cell-based
Conditions: 72 h, up to 200 μM
Observable: cytotoxic effect on A549 lung cancer cell line (in words)

Compound | Reported Result
O=C1Nc2ccc(F)cc2C1=NN=Cc1ccc(O)cc1 | not active
COc1ccc(C=NN=C2C(=O)Nc3ccc(F)cc32)cc1O | cytotoxic effect
COc1cc(C=NN=C2C(=O)Nc3ccc(F)cc32)ccc1O | not active
O=C1Nc2ccc(F)cc2C1=NN=Cc1ccc(Cl)cc1 | not active
O=C1Nc2ccc(F)cc2C1=NN=Cc1ccc(Br)cc1 | cytotoxic effect
Cc1ccc(C=NN=C2C(=O)Nc3ccc(F)cc32)cc1 | not active
COc1ccc(C=NN=C2C(=O)Nc3ccc(F)cc32)c(O)c1 | not active
O=C1Nc2ccc(F)cc2C1=NN=Cc1ccc(F)cc1 | not active
O=C1Nc2ccc(F)cc2C1=NN=Cc1cccc(O)c1 | cytotoxic effect
O=C1Nc2ccc(F)cc2C1=NN=Cc1ccccc1 | not active
O=C1Nc2ccc(F)cc2C1=NN=Cc1ccc([N+](=O)[O-])cc1 | cytotoxic effect
O=C1Nc2ccc(F)cc2C1=NN=Cc1ccccc1O | not active
NN=C1C(=O)Nc2ccc(F)cc21 [Compound 1, 5-Fluoro-3-hydrazonoindolin-2-one] | not active
COc1ccc(C=NN=C2C(=O)Nc3ccc(F)cc32)cc1 | not active
COc1cccc(C=NN=C2C(=O)Nc3ccc(F)cc32)c1O | cytotoxic effect

----------
System: A549 human lung epithelial carcinoma cell line
Experiment: MTT cytotoxicity, A549 lung cancer cells
Format: cell-based
Conditions: 72 h; IC50 >200 taken as 200
Observable: selectivity index (SI), HEK-293T IC50 divided by A549 IC50

Smiles | Reading Qualifier | Reported Result
O=C1Nc2ccc(F)cc2C1=NN=Cc1cccc(O)c1 | = | 0.48
O=C1Nc2ccc(F)cc2C1=NN=Cc1ccc([N+](=O)[O-])cc1 | = | 0.14
O=C1Nc2ccc(F)cc2C1=NN=Cc1ccc(Br)cc1 | = | 0.13
COc1cccc(C=NN=C2C(=O)Nc3ccc(F)cc32)c1O | > | 1.33
COc1ccc(C=NN=C2C(=O)Nc3ccc(F)cc32)cc1O | > | 1.73

----------
Tested on: HepG2 human liver epithelial carcinoma cell line
Assay: MTT cytotoxicity, HepG2 liver cancer cells
Format: cell-based
Conditions: 72 h; IC50 >200 taken as 200
The entries below are paired with their reported selectivity index (SI), HEK-293T IC50 / HepG2 IC50.
Observable: selectivity index (SI), HEK-293T IC50 / HepG2 IC50

Molecule | System Under Test | Reported Result
COc1ccc(C=NN=C2C(=O)Nc3ccc(F)cc32)cc1 [Compound 7] | HepG2 human liver epithelial carcinoma cell line | 1.29
O=C1Nc2ccc(F)cc2C1=NN=Cc1ccc([N+](=O)[O-])cc1 [Compound 8] | HepG2 human liver epithelial carcinoma cell line | 0.12
O=C1Nc2ccc(F)cc2C1=NN=Cc1cccc(O)c1 [Compound 10] | HepG2 human liver epithelial carcinoma cell line | 0.52
O=C1Nc2ccc(F)cc2C1=NN=Cc1ccc(F)cc1 [Compound 5] | HepG2 human liver epithelial carcinoma cell line | 1.78

----------
Test system: HEK-293T human normal embryonic kidney cell line
Assay: MTT toxicity, HEK-293T normal cells
Assay type: cell-based
Conditions: 72 h, up to 200 μM
Observable: toxic effect on healthy HEK-293T cells (in words)

Smiles | Reported Result
Cc1ccc(C=NN=C2C(=O)Nc3ccc(F)cc32)cc1 | toxic effect
O=C1Nc2ccc(F)cc2C1=NN=Cc1ccccc1O | toxic effect

----------
Smiles | melting point
O=C1Nc2ccc(F)cc2C1=NN=Cc1ccc(Br)cc1 | 262 to 263 °C
O=C1Nc2ccc(F)cc2C1=NN=Cc1ccc(O)cc1 | 275 to 276 °C
COc1ccc(C=NN=C2C(=O)Nc3ccc(F)cc32)cc1O | 263 to 264 °C
